target: Nuclear receptor subfamily 6 group A member 1 (Homo sapiens, UniProt Q15406); assay: Antagonist activity at GCNF (unknown origin) by luciferase reporter gene assay
Sequence (Q15406 whole entry): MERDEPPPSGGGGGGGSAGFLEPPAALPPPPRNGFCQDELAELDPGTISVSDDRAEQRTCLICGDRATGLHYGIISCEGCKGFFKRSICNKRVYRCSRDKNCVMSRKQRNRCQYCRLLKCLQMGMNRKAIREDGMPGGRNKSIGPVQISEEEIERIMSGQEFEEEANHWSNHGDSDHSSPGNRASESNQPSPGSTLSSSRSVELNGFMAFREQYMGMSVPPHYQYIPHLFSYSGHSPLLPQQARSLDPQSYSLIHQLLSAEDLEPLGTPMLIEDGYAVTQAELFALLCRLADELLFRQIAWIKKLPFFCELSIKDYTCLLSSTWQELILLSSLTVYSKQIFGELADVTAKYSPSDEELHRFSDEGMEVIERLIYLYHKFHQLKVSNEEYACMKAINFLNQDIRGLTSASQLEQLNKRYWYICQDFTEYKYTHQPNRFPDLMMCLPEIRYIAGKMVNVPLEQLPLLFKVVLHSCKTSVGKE
value.kind: EC50

Q: Which EC50 reading was recorded for the compound O=C1Nc2ccc(Br)cc2C(=O)N(Cc2ccccc2Sc2ccc(Cl)cc2)[C@@H]1Cc1ccccc1 ?
Result: < 7 µM

---

test: Oral bioavailability in BALB/c nude mouse at 10 mg/kg by LC-MS/MS analysis; type: ADME, organism-based; settings: in vivo
value.kind: bioavailability (%)
Reply with just the number (in %).

Q: Which bioavailability reading was recorded for the compound CCN(CC)C(=O)C[C@H]1C(=O)Nc2cc(NC(=O)c3cc(OC)c(OC)c(OC)c3Br)c(Oc3cc(C)cc(C)c3)cc2C(=O)N1C ?
Result: 1.53

---

Give log10(GI50) for every item shown.
tested on: LOX IMVI; assay: Anticancer activity against human LOX IMVI cells assessed as cell growth inhibition measured after 48 hrs by SRB assay; format: functional
Field: value | Transform: log10 | Quantity: GI50 | Unit: nM

Q: Query log10(GI50) on LOX IMVI for COC(=O)C[C@@H]1NC(=O)c2cc(Oc3cc(C)cc(C)c3)c(NC(=O)c3cc(OC)c(OC)c(OC)c3)cc2NC1=O
Result: 1.30

Q: Query log10(GI50) on LOX IMVI for COC(=O)C[C@@H]1NC(=O)c2cc(Oc3ccc4c(c3)CCC4)c(NC(=O)c3cc(OC)c(OC)c(OC)c3)cc2NC1=O
Result: 3.29

Q: Query log10(GI50) on LOX IMVI for CCc1nc(C[C@@H]2NC(=O)c3cc(Oc4cc(C)cc(C)c4)c(NC(=O)c4cc(OC)c(OC)c(OC)c4)cc3NC2=O)no1
Result: 2.38

Q: Query log10(GI50) on LOX IMVI for COc1cc(C(=O)Nc2cc3c(cc2Oc2cc(C)cc(C)c2)C(=O)N[C@@H](CC(=O)N2CCN(C)CC2)C(=O)N3)cc(OC)c1OC
Result: 1.95

Q: Query log10(GI50) on LOX IMVI for CCN(CC)C(=O)C[C@H]1C(=O)Nc2cc(NC(=O)c3cc(OC)c(OC)c(OC)c3)c(Oc3cc(C)cc(C)c3)cc2C(=O)N1C
Result: 1.26

Q: Query log10(GI50) on LOX IMVI for CCN(CC)C(=O)C[C@H]1C(=O)Nc2cc(NC(=O)c3cc(OC)c(OC)c(OC)c3Cl)c(Oc3cc(C)c(F)c(C)c3)cc2C(=O)N1C
Result: 0.95

Q: Query log10(GI50) on LOX IMVI for CCN(CC)C(=O)C[C@@H]1NC(=O)c2cc(Oc3cc(C)c(Br)c(C)c3)c(NC(=O)c3cc(OC)c(OC)c(OC)c3)cc2NC1=O
Result: 2.11

---

tested on: Panel NCI-60 (60 carcinoma cell lines); experiment: Anticancer activity against human Panel NCI-60 (60 carcinoma cell lines) line assessed as cell growth inhibition measured after 48 hrs by SRB assay; format: functional
value.kind: GI50 (nM)
Reply with just the number (in nM).

Q: Which GI50 reading was recorded for the compound COc1cc(C(=O)Nc2cc3c(cc2Oc2cc(C)cc(C)c2)C(=O)N[C@@H](CC(=O)N(C)C)C(=O)N3)cc(OC)c1OC ?
Result: 60

Q: Which GI50 reading was recorded for the compound COC(=O)C[C@@H]1NC(=O)c2cc(Oc3cccc(N(C)C)c3)c(NC(=O)c3cc(OC)c(OC)c(OC)c3)cc2NC1=O ?
Result: 4680

Q: Which GI50 reading was recorded for the compound COC(=O)C[C@@H]1NC(=O)c2cc(Oc3ccc(C)c(C)c3)c(NC(=O)c3cc(OC)c(OC)c(OC)c3)cc2NC1=O ?
Result: 1910

Q: Which GI50 reading was recorded for the compound CCN(CC)C(=O)C[C@H]1C(=O)Nc2cc(NC(=O)c3cc(OC)c(OC)c(OC)c3Cl)c(Oc3cc(C)c(F)c(C)c3)cc2C(=O)N1C ?
Result: 18

Q: Which GI50 reading was recorded for the compound CCN(CC)C(=O)C[C@H]1C(=O)Nc2cc(NC(=O)c3cc(OC)c(OC)c(OC)c3)c(Oc3cc(C)cc(C)c3)cc2C(=O)N1CC ?
Result: 69

Reference source: ChEMBL document CHEMBL5214978
